// data source = ChEMBL document CHEMBL5728931

# assayedSystem: D-3-phosphoglycerate dehydrogenase (Homo sapiens)
# Sequence (O43175 whole entry): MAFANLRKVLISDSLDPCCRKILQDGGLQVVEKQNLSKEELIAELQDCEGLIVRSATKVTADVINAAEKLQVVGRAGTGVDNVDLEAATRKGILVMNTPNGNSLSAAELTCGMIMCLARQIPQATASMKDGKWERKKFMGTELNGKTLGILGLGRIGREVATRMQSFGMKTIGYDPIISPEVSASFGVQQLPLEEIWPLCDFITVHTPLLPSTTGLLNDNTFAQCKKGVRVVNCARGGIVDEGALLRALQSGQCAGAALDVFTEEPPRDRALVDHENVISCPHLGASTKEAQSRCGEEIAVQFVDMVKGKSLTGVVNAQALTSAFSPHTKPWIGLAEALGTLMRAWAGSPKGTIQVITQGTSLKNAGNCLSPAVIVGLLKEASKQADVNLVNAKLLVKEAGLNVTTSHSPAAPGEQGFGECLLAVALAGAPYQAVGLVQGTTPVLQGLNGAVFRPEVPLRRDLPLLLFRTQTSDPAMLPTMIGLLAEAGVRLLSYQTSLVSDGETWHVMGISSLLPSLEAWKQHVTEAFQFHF
# assayDetails: Enzyme Assay: PHGDH assay buffer contained 50 mM TEA pH 8.0, 10 mM MgCl2, 0.05% BSA, and 0.01% Tween-20. PHGDH enzyme buffer consisted of assay buffer with 20 nM PHGDH and 0.2 mg/mL diaphorase. PHGDH substrate buffer contained 0.3 mM NAD 1.25 mM glutamate, 0.1 mM 3-phosphoglycerate, 0.2 mM resazurin, 1 μM PSAT1, and 1 μM PSPH. qHTS was performed in 1536-well plates dispensed with a BioRAPTR FRD. Each well contained equal volumes of substrate buffer […]. Plates were read at 0 minutes and 20 minutes at room temperature with a ViewLux uHTS Microplate Imager (PerkinElmer). Follow-up assays were performed in black 384-well plates (Greiner) in 20 μL of enzyme buffer to which compounds were added in dose-response with an HP D300 digital dispenser (Hewlett-Packard), followed by addition of 20 μL of substrate buffer. Plates were incubated at room temperature (25° C.) and read at 0 and 20 minutes with a Spectramax M5 plate reader (Molecular Devices) in fluorescence intensity mode with a λex=550 nm and λem=600 nm (emission cutoff=590 nm).
assayReadout: IC50

# input compound: `Cc1cc(C)nc(NC(=S)N2CCN(c3cncnc3)CC2)c1` ; wanted: its IC50 > 20 µM
